- experimentalSystem: Cannabinoid Receptor 1 (CNR1) (Homo sapiens)
- Sequence (P21554 whole entry): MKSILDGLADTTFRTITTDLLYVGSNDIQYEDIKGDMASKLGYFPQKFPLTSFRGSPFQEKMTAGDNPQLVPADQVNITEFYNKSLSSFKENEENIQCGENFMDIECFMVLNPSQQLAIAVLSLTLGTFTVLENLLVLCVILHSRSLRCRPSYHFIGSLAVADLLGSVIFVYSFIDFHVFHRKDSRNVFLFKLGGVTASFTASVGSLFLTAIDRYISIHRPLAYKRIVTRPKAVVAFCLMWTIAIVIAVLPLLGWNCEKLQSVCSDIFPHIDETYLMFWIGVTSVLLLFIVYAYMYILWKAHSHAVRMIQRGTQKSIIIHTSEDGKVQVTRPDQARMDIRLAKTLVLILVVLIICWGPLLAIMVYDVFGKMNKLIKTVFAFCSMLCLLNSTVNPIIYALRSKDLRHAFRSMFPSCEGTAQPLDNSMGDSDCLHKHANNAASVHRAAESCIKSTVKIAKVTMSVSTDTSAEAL
- procedureText: cAMP secondary messenger assay, agonist format
- Type: cell-based
- condition: read-out: EC50 (μM) Agonist/Opener
Counter-ions that a name gives are not always drawn.
measurementName: EC50

Q: Return EC50 (reported value) for this molecule: CN(C)CCc1ccn2ccccc12 [28-12 oxalate]
A: > 30 µM

----------
- experimentalSystem: KvLQT1/minK (Homo sapiens, UniProt P51787)
- Sequence (P51787 whole entry): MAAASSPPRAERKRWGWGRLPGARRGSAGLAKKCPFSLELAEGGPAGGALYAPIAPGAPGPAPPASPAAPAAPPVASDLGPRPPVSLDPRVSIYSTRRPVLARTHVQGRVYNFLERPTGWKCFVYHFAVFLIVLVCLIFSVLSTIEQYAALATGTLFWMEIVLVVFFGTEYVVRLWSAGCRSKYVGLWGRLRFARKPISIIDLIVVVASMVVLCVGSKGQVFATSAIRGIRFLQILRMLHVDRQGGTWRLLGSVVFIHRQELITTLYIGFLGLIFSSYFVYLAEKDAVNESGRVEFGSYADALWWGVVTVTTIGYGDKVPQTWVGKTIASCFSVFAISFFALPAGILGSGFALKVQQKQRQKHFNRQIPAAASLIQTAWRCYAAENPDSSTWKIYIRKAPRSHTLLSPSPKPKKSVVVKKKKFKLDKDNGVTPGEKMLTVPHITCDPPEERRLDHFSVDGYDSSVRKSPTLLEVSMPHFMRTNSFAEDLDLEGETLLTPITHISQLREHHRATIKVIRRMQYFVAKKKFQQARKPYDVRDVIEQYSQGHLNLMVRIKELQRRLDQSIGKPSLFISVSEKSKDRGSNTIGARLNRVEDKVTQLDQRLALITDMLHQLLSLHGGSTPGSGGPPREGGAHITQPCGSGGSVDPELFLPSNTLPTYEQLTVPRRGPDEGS
- procedureText: Ion channel assay, blocker format
- Format: cell-based
- condition: read-out: IC50 (μM) Antag./Blocker/Inhibitor
Counter-ions that a name gives are not always drawn.
measurementName: IC50

Q: # return recorded IC50 for input CN(C)CCc1ccn2ccccc12 [28-12 oxalate]
A: > 30 µM

----------
- experimentalSystem: Lymphocyte Cell-Specific Protein-Tyrosine Kinase (Src family) (LCK) (Homo sapiens)
- Construct: T7 phage fusion (most assays) or DNA tag for qPCR (the remaining kinases); made in house; host or cells: E. coli (BL21-derived, T7 phage display) or HEK-293
- Sequence (P06239 whole entry, the tested form may be a part): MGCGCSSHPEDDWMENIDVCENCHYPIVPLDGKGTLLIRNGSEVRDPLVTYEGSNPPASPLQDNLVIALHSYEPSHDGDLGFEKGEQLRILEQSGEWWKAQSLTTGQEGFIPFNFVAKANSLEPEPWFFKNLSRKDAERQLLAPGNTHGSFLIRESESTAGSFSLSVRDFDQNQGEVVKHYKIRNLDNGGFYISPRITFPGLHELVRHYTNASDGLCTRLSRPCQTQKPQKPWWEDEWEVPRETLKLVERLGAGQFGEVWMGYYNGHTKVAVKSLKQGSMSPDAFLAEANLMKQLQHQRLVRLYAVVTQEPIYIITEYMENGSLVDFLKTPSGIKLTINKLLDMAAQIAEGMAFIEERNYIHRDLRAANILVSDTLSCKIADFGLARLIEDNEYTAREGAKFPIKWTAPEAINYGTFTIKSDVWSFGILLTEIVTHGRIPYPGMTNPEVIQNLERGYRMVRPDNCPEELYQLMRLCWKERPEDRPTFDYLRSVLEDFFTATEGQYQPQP
- procedureText: Kinase binding assay (KINOMEscan)
- condition: inhibitor, read-out: IC50 (μM) Antag./Blocker/Inhibitor
Structures can show the parent of a compound that is named as a salt.
measurementName: IC50

Q: Specify measured IC50 for CN(C)CCc1ccn2ccccc12 [28-12 oxalate] .
A: > 30 µM

----------
- experimentalSystem: Nuclear Hormone Glucocorticoid Receptor (GR) (Homo sapiens, UniProt P04150)
- Sequence (P04150 1-777): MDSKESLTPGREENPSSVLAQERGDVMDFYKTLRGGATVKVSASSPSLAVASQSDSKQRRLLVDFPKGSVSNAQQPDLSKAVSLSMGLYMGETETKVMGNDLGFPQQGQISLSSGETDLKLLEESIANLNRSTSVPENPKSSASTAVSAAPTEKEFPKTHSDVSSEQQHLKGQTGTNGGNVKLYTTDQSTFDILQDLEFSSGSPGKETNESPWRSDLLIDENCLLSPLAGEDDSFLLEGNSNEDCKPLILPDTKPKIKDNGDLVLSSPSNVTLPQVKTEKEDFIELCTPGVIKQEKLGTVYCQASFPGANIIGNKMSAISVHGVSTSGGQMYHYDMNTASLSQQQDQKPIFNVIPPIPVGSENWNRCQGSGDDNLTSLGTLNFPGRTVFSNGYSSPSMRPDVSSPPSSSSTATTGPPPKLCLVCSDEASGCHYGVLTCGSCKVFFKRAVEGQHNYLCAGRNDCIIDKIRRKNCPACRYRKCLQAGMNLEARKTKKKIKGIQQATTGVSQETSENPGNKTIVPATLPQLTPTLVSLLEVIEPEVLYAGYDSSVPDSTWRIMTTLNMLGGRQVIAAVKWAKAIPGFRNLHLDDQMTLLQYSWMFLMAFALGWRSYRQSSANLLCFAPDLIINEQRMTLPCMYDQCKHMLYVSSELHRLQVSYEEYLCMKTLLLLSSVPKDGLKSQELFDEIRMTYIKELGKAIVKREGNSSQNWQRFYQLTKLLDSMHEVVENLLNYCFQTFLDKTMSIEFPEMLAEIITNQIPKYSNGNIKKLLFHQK
- procedureText: NHR Protein Interaction assay, antagonist format
- Format: cell-based
- condition: read-out: IC50 (μM) Antag./Blocker/Inhibitor
Counter-ions that a name gives are not always drawn.
measurementName: IC50 (µM)
Give bare numbers, in µM.

Q: Output IC50 of CN(C)CCc1ccn2ccccc12 [28-12 oxalate]
A: 17.1
